Assay: Clinical trial 005, rifalazil concentration in plasma of tuberculosis patients
Assay type: in vivo, human
Conditions: human, plasma, INH + 25 mg KRM; Hour 5; read-out: Rifalazil Concentration in Plasma, Max
Parameter: concentration at 5 h (ng/mL)
Give just the number in ng/mL; leave the unit off.

concentration at 5 h measured on CO[C@H]1/C=C/O[C@@]2(C)Oc3c(C)c(O)c4c(=O)c(c5oc6cc(N7CCN(CC(C)C)CC7)cc(O)c6nc-5c4c3C2=O)NC(=O)/C(C)=C\C=C\[C@H](C)[C@H](O)[C@@H](C)[C@@H](O)[C@@H](C)[C@H](OC(C)=O)[C@@H]1C = 42.7

====

Assay: clinical
Conditions: human, in vivo, 100 mg
Parameter: AUC(0-t) (µg·h/mL)
Numbers only here, please. The scale is µg·h/mL.

CO[C@H]1/C=C/O[C@@]2(C)Oc3c(C)c(O)c4c(=O)c(c5oc6cc(N7CCN(CC(C)C)CC7)cc(O)c6nc-5c4c3C2=O)NC(=O)/C(C)=C\C=C\[C@H](C)[C@H](O)[C@@H](C)[C@@H](O)[C@@H](C)[C@H](OC(C)=O)[C@@H]1C [Rifalazil] yielded AUC(0-t) of 0.8

====

Assay: Clinical trial 005, rifalazil concentration in plasma of tuberculosis patients
Assay type: in vivo, human
Details: human, plasma, INH + 25 mg KRM; Hour 48; read-out: Rifalazil Concentration in Plasma, Mean
Description: Definite diagnosis and evaluation of treatment efficacy requires direct examination of sputum for the presence of M. tuberculosis. The extent of M. tuberculosis infection is determined by number of bacteria able to form colonies and is expressed as colony forming units. […] The CFU, typically expressed as Log10, have therefore important diagnostic and treatment evaluative value. Table 21 summarizes the plasma concentrations data of rifalazil measured in patients that received rifalazil at zero hour. […]
Parameter: concentration at 48 h (ng/mL)
// return numeric value only (unit: ng/mL, not printed)

The compound listed as CO[C@H]1/C=C/O[C@@]2(C)Oc3c(C)c(O)c4c(=O)c(c5oc6cc(N7CCN(CC(C)C)CC7)cc(O)c6nc-5c4c3C2=O)NC(=O)/C(C)=C\C=C\[C@H](C)[C@H](O)[C@@H](C)[C@@H](O)[C@@H](C)[C@H](OC(C)=O)[C@@H]1C has a reported concentration at 48 h of 2.15

====

Assay: clinical
Conditions: human, in vivo, Tmax (mean)
Parameter: Tmax (h)
Enter your answer as a number in h; do not include the unit.

Quick note, Tmax for CO[C@H]1/C=C/O[C@@]2(C)Oc3c(C)c(O)c4c(=O)c(c5oc6cc(N7CCN(CC(C)C)CC7)cc(O)c6nc-5c4c3C2=O)NC(=O)/C(C)=C\C=C\[C@H](C)[C@H](O)[C@@H](C)[C@@H](O)[C@@H](C)[C@H](OC(C)=O)[C@@H]1C [Rifalazil] landed at 5.25

====

Experiment: Clinical trial 005, rifalazil concentration in plasma of tuberculosis patients
Assay type: in vivo, human
Conditions: human, plasma, INH + 10 mg KRM; Hour 0; read-out: Rifalazil Concentration in Plasma, Mean
Parameter: concentration at 0 h (ng/mL)
Give your result in ng/mL as a bare value.

Just so you know, measured concentration at 0 h for CO[C@H]1/C=C/O[C@@]2(C)Oc3c(C)c(O)c4c(=O)c(c5oc6cc(N7CCN(CC(C)C)CC7)cc(O)c6nc-5c4c3C2=O)NC(=O)/C(C)=C\C=C\[C@H](C)[C@H](O)[C@@H](C)[C@@H](O)[C@@H](C)[C@H](OC(C)=O)[C@@H]1C came out at 0
